Ref: patent US5773444A

# Target Or Test System: endothelin converting enzyme (ECE) (Homo sapiens)
# Construct: ECE was partially purified from EA.hy926 grown in 150 roller; endogenous in cells; host or cells: EA.hy926 (human umbilical vein endothelial cells fused with A549); detergent-solubilised membranes, RCA-I lectin eluate
# Sequence (P42892 whole entry, the tested form may be a part): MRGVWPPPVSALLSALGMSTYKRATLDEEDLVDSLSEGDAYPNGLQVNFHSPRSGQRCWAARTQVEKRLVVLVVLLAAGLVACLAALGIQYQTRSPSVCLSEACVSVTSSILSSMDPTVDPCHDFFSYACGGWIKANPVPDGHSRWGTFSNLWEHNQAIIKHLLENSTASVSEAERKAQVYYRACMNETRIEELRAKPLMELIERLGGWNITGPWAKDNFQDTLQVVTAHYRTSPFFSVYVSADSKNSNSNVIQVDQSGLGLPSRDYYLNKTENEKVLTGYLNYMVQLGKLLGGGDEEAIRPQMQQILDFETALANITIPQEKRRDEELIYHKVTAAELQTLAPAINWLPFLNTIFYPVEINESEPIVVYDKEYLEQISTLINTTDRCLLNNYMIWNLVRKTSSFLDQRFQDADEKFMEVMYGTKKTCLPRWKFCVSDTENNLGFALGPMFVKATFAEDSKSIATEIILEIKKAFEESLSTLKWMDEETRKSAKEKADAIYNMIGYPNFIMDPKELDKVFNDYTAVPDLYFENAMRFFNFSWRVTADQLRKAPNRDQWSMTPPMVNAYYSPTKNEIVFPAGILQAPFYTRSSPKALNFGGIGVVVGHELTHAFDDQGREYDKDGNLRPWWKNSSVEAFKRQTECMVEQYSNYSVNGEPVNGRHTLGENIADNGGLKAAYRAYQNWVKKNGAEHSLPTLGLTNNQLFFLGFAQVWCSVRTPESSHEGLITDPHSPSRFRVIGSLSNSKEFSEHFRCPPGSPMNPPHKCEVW
# Assay Overview: Cell-based assay (ET-1 level in medium of EA.hy926 cells by RIA)
# Recorded Conditions: read-out: IC50 (Table IV, cell-based assay)
Structures can show the parent of a compound that is named as a salt.
Experimental Endpoint: IC50
Write your answer as a measured quantity: the number, then the unit.

| Compound | Experimental Endpoint | Recorded Value |
| --- | --- | --- |
| CCN1CCCC(Nc2nc(C(Cl)(Cl)Cl)nc3ccc(I)cc23)C1 (centres unmarked) [Example 1, Monohydrochloride] | IC50 | 6.6 µM |

[ask] Fill in the blank: the reported IC50 of CCN1CCCC(Nc2nc(C(Cl)(Cl)Cl)nc3ccc(Cl)cc23)C1 (centres unmarked) [Example 3] is ____.
[reply] 14.4 µM
